# Assay system: Human L1CAM (purified protein) (human) (UniProt P32004)
# Test: BLI, Octet RED384; antibody captured on AHC sensor, human L1CAM 50-0.78 nM as analyte
We begin with a simple list: items and their reported Kd.
Hi! Could you send only the number? It should be in nM, unit omitted.

{"columns": ["Binder", "Kd (nM)"],
 "data": [
  ["Ab4H6 antibody (antibody, human IgG1, kappa, V domains shown, Whole human IgG1, kappa; also called Anti-L1CAM (\"Ab4H6\"); Ab4H6 mutant) VH: EVQLVESGGGVVQPGGSLRLSCAASGFTFSRFGMHWVRQAPGKGLEWVAFISNEGSNKYYADSVKGRFTISRDNSANTLYLQMNSLRAEDTAVYYCARGRAYGSGSLFDPWGQGTLVTVSS VL: DIQLTQSPSSLSASVGDRVTITCRASRTISSYVNWYRQRPGKAPESLIYAASNLHSGVPSRFSGSGSGTDFTLTISSLQPEDFATYYCQQSLHFYPWTFGQGTKLEIKR", 0.0741]
]}

Please examine the following record next.
Input line: So what's the measured Kd for this one? Ab612 antibody (antibody, human IgG1, kappa, V domains shown, Whole human IgG1, kappa, purified on protein A; also called Anti-L1CAM ("Ab612")) VH: EVQLVESGGGVVQPGGSLRLSCAASGFTFSRFGMHWVRQAPGKGLEWVAFISNEGSNKYYADSVKGRFTISRDNSANTLYLQMNSLRAEDTAVYYCARGRAYGSGSLFDPWGQGTLVTVSS VL: DIQLTQSPSSLSASVGDRVTITCRASRTISSYVNWYRQRPGKAPESLIYAASNLHSGVPSRFSGSGSGTDFTLTISSLQPEDFATYYCQQSIGRGPVTFGQGTKLEIKR
Output line: 0.105
